Cited source: paper PMC3106293

# measurement.target: hSULT1A1 (Homo sapiens, UniProt P50225)
# Sequence (P50225 whole entry): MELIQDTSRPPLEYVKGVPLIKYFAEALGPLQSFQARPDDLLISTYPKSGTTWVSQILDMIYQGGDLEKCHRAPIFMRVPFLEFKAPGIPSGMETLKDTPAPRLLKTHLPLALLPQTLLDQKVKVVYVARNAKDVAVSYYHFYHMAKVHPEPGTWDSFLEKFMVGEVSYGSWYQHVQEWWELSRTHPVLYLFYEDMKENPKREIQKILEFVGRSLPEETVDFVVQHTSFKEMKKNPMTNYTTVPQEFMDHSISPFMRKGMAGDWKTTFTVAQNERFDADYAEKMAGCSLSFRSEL
# measurement.description: Sulfation of flavonoids by recombinant hSULT1A1
# Assay type: in vitro ADME
# conditions: substrate inhibition constant of flavonoid sulfation; equation (2)
parameter: pKi
Here pKi is given on a logarithmic scale as minus log10 of the concentration in mol/L.

Need pKi of Oc1cc(O)c2c(c1)OC(c1ccc(O)c(O)c1)C(O)C2 (single isomer, unassigned; (+)) [Catechin, (+)catechin] , thanks.
5.20

---

# Test system: sulfotransferases (SULTs) in human intestine cytosol
# measurement.description: Sulfation of flavonoids by human intestine cytosol
# Format: in vitro ADME
# conditions: flavonoid as substrate; Michaelis–Menten equation (1); 1–1000 μM catechin, 1–1000 μM epicatechin, 1–128 μM hesperetin, 1–32 μM eriodictyol
parameter: Km (µM)
Report as a plain number; the unit µM is understood.

Need Km of Oc1cc(O)c2c(c1)OC(c1ccc(O)c(O)c1)C(O)C2 (single isomer, unassigned; (+)) [Catechin, (+)catechin] , thanks.
104
